# study_target: T1, HLA DPB1*02:01 (human)
# T1 chain 1: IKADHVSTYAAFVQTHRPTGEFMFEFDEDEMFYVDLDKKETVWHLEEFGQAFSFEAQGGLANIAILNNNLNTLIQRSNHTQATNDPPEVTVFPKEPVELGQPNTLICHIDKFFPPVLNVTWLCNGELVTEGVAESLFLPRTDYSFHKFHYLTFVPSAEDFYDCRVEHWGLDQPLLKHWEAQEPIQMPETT
# T1 chain 2: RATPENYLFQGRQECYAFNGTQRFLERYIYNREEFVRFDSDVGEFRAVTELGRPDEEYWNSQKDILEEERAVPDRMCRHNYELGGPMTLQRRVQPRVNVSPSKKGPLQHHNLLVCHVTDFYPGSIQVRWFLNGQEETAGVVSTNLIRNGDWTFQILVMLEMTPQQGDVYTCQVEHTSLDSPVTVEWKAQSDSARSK
# assay_remarks: competition with radiolabeled peptide, purified HLA
Where no end group is shown, it is not given here. [ ]: non-standard residue; d: D form. pY = N[C@@H](Cc1ccc(OP(=O)(O)O)cc1)C(=O)O
endpoint_label: IC50

{"binder": "KTKEGVL[pY]VGSKTKE (synthetic post-translationally modified 15-mer; also called Phospho-Y) [alpha-syn peptide aa32KTKEGVLYVGSKTKEaa46 phosphorylated at Y39]", "meas_value": "620 nM"}

Source listed as patent US20200095296A1.
